Molecular target: T1, PUF4 RNA-binding domain (Saccharomyces cerevisiae, UniProt P25339 537-888)
T1 sequence: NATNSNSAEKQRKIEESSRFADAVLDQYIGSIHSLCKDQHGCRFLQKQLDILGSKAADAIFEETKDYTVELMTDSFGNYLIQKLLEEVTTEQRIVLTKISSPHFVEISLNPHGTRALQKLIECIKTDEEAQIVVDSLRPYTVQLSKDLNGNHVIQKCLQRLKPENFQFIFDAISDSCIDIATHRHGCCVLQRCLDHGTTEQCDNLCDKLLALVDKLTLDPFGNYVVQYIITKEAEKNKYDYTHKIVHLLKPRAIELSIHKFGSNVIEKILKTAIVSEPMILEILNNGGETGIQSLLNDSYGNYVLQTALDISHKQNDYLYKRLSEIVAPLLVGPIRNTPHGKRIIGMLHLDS
Assay: Mg; RNA-MaP; 20 mM Na-HEPES pH 7.4, 30 mM KOAc, 0.75 mM MgCl2, 0.1% Tween-20, 5% glycerol, 0.1 mg/mL BSA, 2 mM DTT; 25 C; 0.0125-409.6 nM protein
Settings: tags: N-His6-TEV cleaved; C-SNAP kept, Cy3B-labelled; label: tethered on chip by stalled RNA polymerase
parameter: Kd (nM)
Provide only the numeric value, understood in nM.

binder | Kd, nM
Id_ii_S2_P3E.2_K3.1_C3.2_[T-1C]_H3.1_A3.1_F3.1_T3.2_[A10T] (ssRNA) RNA: UUUGAUUAAUAUGAUAUCGUUCUUUCUCCUGUAUAUAUUUUCUUUCUCGAUAUCAUAUUAAUCUUU | 1.22

Continue with the binder presented below.
Q: Please give the measured Kd for this binder: Ie_S2_P4E.1_K4.1_C4.1_H4.1_[+4TTCCT]_A4.1_F4.1_T4.1 (ssRNA) RNA: UUUGAUUAAUAUGAUAUCGUUCUUUCUUGUAUUCCUUAUUAUUCUUUCUCGAUAUCAUAUUAAUCUUU
Result: 8
